- experimental_target: Polycomb protein EED (Homo sapiens, UniProt O75530)
- Sequence (O75530 whole entry, the tested form may be a part): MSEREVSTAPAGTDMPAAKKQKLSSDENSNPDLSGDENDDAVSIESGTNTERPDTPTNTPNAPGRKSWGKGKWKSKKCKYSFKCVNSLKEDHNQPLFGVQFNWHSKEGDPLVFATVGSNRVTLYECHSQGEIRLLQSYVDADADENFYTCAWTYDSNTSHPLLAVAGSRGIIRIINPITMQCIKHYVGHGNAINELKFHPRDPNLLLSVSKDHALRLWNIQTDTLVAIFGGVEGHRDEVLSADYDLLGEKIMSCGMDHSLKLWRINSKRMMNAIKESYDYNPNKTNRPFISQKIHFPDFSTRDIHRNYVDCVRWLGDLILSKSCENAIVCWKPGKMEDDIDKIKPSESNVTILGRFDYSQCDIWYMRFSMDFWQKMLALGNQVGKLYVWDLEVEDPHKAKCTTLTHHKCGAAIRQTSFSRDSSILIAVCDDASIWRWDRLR
- assay_name: Binding affinity to biotin labelled human EED (78 to 441 residues) by SPR assay
pKd: −log10 of the molar value.
value_type: pKd

Solved cases below.
compound	pKd
CC(=O)N1CCN(c2ccc([C@H]3CN([C@H]4CCc5cccc(F)c54)C[C@@H]3N(C)C)cc2)CC1	9.00
c1ccc2c(c1)CCN(c1ccncc1)C2	4.66
CN(C)[C@H]1CN(Cc2c(F)cccc2Br)C[C@@H]1c1ccccn1	5.01
CC(=O)N1CCN(c2ccc([C@H]3CN(Cc4c(C)cccc4F)C[C@@H]3N(C)C)cc2)CC1	7.70
COc1ccc([C@H]2CN(C3CCc4cccc(F)c43)C[C@@H]2N(C)C)cc1OC (some centres undefined)	7.37

I = CC(=O)N1CCN(c2ccc([C@@H]3CN([C@@H]4CCc5cccc(F)c54)C[C@H]3N(C)C)cc2)CC1
II = CN(C)[C@H]1CN(Cc2c(F)cc(O)cc2Br)C[C@@H]1c1cn(C)c2ccccc12
III = CC(=O)N1CCN(c2ccc([C@H]3CN([C@@H]4CCc5cccc(F)c54)C[C@@H]3N(C)C)cc2)CC1
IV = COc1ccccc1N1CCN(C(=O)c2ccccc2S(C)(=O)=O)CC1
V = CN(C)[C@H]1CN(Cc2c(F)cccc2Br)C[C@@H]1c1ccccc1
Query block: Rank descending by pKd. Quick reminder: the answer is the labels in the order asked.
Result block: II, III, I, V, IV

A = CC(=O)N1CCN(c2ccc([C@@H]3CN([C@H]4CCc5cccc(F)c54)C[C@H]3N(C)C)cc2)CC1
B = CC(=O)N1CCN(c2ccc([C@H]3CN(C4CCc5cccc(F)c54)C[C@@H]3N(C)C)cc2)CC1 (some centres undefined)
Query block: Lab note: check whether A or B shows the higher recorded pKd. Identify your pick by its label.
Result block: B
(B: 8.40, A: 6.54)

====

- experimental_target: Polycomb protein EED (Homo sapiens, UniProt O75530)
- assay_name: Binding affinity to His tagged human EED (77 to 441 residues) expressed in Escherichia coli BL21(DE3)-T1R by ITC method
- test_conditions: read-out: Kd(app)
value_type: Kd (nM)

A = CC(=O)N1CCN(c2ccc([C@@H]3CN([C@H]4CCc5cccc(F)c54)C[C@H]3N(C)C)cc2)CC1
B = c1ccc2c(c1)CCN(c1ccncc1)C2
Query block: Choose between A and B : whose measured Kd value is numerically larger? Reply briefly: the label of your chosen item.
Result block: B

====

- experimental_target: Polycomb protein EED (Homo sapiens, UniProt O75530)
- assay_name: Binding affinity to His tagged human EED (77 to 441 residues) expressed in Escherichia coli BL21(DE3)-T1R by ITC method
- test_conditions: read-out: Kd(app)
value_type: Kd (nM)

Worked cases, answers included:
molecule	Kd (nM)
CN(C)[C@H]1CN([C@H]2CCc3cccc(F)c32)C[C@@H]1c1cn(C)c2ccccc12	10
CC(=O)N1CCN(c2ccc([C@H]3CN(C4CCc5cccc(F)c54)C[C@@H]3N(C)C)cc2)CC1 (stereo partly specified)	2100
CC(=O)N1CCN(c2ccc([C@@H]3CN([C@@H]4CCc5cccc(F)c54)C[C@H]3N(C)C)cc2)CC1	110
CN(C)[C@@H]1CN(Cc2c(F)cccc2Br)C[C@H]1c1cn(C)c2ccccc12	370
CC(=O)N1CCN(c2ccc([C@H]3CN([C@@H]4CCc5cccc(F)c54)C[C@@H]3N(C)C)cc2)CC1	1140

a = Cc1cccc(F)c1CN1C[C@H](c2ccc(S(C)(=O)=O)cc2)[C@@H](N(C)C)C1
b = Cc1cccc(F)c1CN1C[C@@H](N(C)C)[C@H](c2ccc(S(C)(=O)=O)cc2)C1
c = Cc1cccc(F)c1CN1C[C@H](c2cn(C)c3ccccc23)[C@@H](N(C)C)C1
d = CN(C)c1cc(N2CCc3ccccc3C2)ccn1
Query block: List from greatest to least Kd. Write the labels, ordered according to the request.
Result block: d, b, a, c
(d: 2500 nM, b: 940 nM, a: 30 nM, c: 6 nM)

a = CN(C)[C@H]1CN(Cc2c(F)cccc2Br)C[C@@H]1c1cn(C)c2ccccc12
b = CC(=O)N1CCN(c2ccc([C@H]3CN([C@H]4CCc5cccc(F)c54)C[C@@H]3N(C)C)cc2)CC1
Query block: Short answer wanted: higher Kd, a or b ? // output: label of the selected item
Result block: a
(a: 90 nM, b: 10 nM)
